Collected IC50 values appear next to each entry.
biological target: Heart phosphodiesterase (Bos taurus, UniProt Q01061+P14100+E1BN64); experiment: Inhibition of bovine heart phosphodiesterase; format: protein assay
Attribute Measured: IC50 (µM)

| Molecule | Attribute Measured | Val |
| --- | --- | --- |
| CNc1nccn2c(Br)cnc12 | IC50 | 337 |
| Cn1c(=O)c2nc[nH]c2n(C)c1=O.O [THEOPHYLLINE] | IC50 | 92 |
| Nc1nc(Br)cn2ccnc12 | IC50 | 267 |
| CCNc1nc(Br)cn2ccnc12 | IC50 | 81 |
| CNc1nc(Br)cn2cc(C#N)nc12 | IC50 | 70 |
| CNc1nc(Br)cn2ccnc12 | IC50 | 27 |

====

Collected LD50 values appear next to each entry.
test: Compound was tested for it's acute toxicity in mice when given orally.; type: organism-based; settings: mouse, in vivo, po

| Compound | Display Unit | LD50 |
| --- | --- | --- |
| CNc1nc(Br)cn2cc(C#N)nc12 | µmol/kg | 500 |
| CCNc1nc(Br)cn2ccnc12 | µmol/kg | 2900 |
| CNc1nc(Br)cn2ccnc12 | µmol/kg | 2200 |
| Cn1c(=O)c2nc[nH]c2n(C)c1=O.O [THEOPHYLLINE] | µmol/kg | 1900 |
| Nc1nc(Br)cn2ccnc12 | µmol/kg | 1300 |

====

species on record: Rattus norvegicus; assay: Inhibition of carbachol induced tracheal contraction; format: functional; conditions: Trachea, read-out: ED50 (the source's name)
pEC50: −log10 of the molar value.
Attribute Measured: pEC50

| Molecule | Val |
| --- | --- |
| CNc1nc(Br)cn2ccnc12 | 4.62 |
| Nc1nc(Br)cn2ccnc12 | 4.03 |
| CNc1nc(Br)cn2cc(C#N)nc12 | 5.70 |
| Cn1c(=O)c2nc[nH]c2n(C)c1=O.O [THEOPHYLLINE] | 3.04 |
| CCNc1nc(Br)cn2ccnc12 | 4.19 |

====

tested on: Mus musculus; test: Locomotor activity (no. light beam crossings in 50 min) in mice by intravenous dose at 55 umol/kg; format: functional
Attribute Measured: Activity

| Molecule | Assayed System | Val |
| --- | --- | --- |
| Cn1c(=O)c2nc[nH]c2n(C)c1=O.O [THEOPHYLLINE] | Mus musculus | 130% |
| CNc1nccn2c(Br)cnc12 | Mus musculus | -25% |
| CCNc1nc(Br)cn2ccnc12 | Mus musculus | -13% |
| CNc1nc(Br)cn2cc(C#N)nc12 | Mus musculus | -64% |
| CNc1nc(Br)cn2ccnc12 | Mus musculus | -75% |
| Nc1nc(Br)cn2ccnc12 | Mus musculus | -53% |
